- STUDY_SYSTEM: GABARAP (1-117), His8-TEV-GABARAP (human, UniProt O95166 1-117)
- PROTOCOL_TEXT: SPR
QUANTITY_NAME: pKd
# pKd is unitless: minus log10 of the molar concentration; print number only

Provide measured pKd value, entry: GST-PreScission-p62 FIR 4P (domain or fragment) MESDNCSGGDDDWTHLSSKEVDPETGELQSLQMPESEGPEELDPEQEGPTGLKEA
6.17
